# compound, melting point
measured = [
    ("Cn1cnc(COc2nn3c(-c4ccc(F)cc4F)nnc3cc2C2(C)CCCCC2)n1 [Example 13]", "156 °C"),
    ("Cn1nccc1COc1nn2c(-c3ccccc3F)nnc2cc1C1CCC1 [Example 26]", "184 to 186 °C"),
    ("Cn1cnc(COc2nn3c(-c4ccccc4F)nnc3cc2C2(C)CCOCC2)n1 [Example 37]", "154 °C"),
    ("Cn1ncnc1COc1nn2c(-c3ccccc3F)nnc2cc1-c1cccc(F)c1 [Example 44]", "204 to 206 °C"),
    ("Cn1ncnc1COc1nn2c(-c3ccccc3F)nnc2cc1C1(F)CCC1 [Example 25]", "154 to 162 °C"),
    ("CC(C)CCc1cc2nnc(-c3ccccc3F)n2nc1OCc1ncnn1C [Example 29]", "103 to 105 °C"),
    ("Cn1ncnc1COc1nn2c(-c3ccccc3F)nnc2cc1CC1CCCC1 [Example 30]", "135 to 137 °C"),
    ("Cn1ncnc1COc1nn2c(-c3ccccc3F)nnc2cc1-c1cccs1 (hydrate or solvate) [Example 18]", "189 to 190 °C"),
    ("Cn1ncnc1COc1nn2c(-c3ccc(F)cc3F)nnc2cc1C1(C)CCCCC1 [Example 12]", "196 °C"),
]
